SYSTEM TESTED: L-lactate dehydrogenase (Plasmodium falciparum (isolate CDC / Honduras)) (UniProt Q27743)
Sequence (Q27743 whole entry, looked up): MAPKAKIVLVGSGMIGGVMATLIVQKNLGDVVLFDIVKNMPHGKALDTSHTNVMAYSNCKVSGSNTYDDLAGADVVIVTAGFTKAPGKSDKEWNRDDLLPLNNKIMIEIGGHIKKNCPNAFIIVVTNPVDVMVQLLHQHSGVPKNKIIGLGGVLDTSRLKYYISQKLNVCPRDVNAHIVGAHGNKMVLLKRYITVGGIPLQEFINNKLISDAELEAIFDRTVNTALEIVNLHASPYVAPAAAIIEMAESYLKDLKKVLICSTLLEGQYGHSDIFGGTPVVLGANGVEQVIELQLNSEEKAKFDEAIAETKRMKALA
PROTOCOL SUMMARY: PfLDH activity inhibition – cell lysate, 3D7 strain, counter-screen for P. falciparum growth inhibition project (AID 2304);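 also: 0% = vehicle and 100% = reference inhibitor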
RUN CONDITIONS: P. falciparum 3D7 crude extract, LDH APAD/NBT absorbance; at 2 µM; active compounds read high
Activity calls are given as the source filed them. No rule for the calls is given here.
QUANTITY MEASURED: inhibition

Find the measured inhibition of O=C(/C=C/c1ccc(F)cc1)NC1CCC(CCN2CCc3ccc(-n4cccn4)cc3CC2)CC1 (stereo not given) and report it.
3% (inactive)

Find the measured inhibition of `O=C(/C=C/c1ccc(Cl)c(Cl)c1)NCCCCCN1CCC(n2c(=O)[nH]c3ccccc32)CC1` and report it.
2% (inactive)

Find the measured inhibition of `COc1ccc2nccc(N3C[C@H]4C[C@@H]3CN4CCNCc3ccc4c(n3)NC(=O)CS4)c2n1` and report it.
1% (inactive)

Find the measured inhibition of `NC(N)=NC(=O)Nc1cc(Cl)c(F)c(Cl)c1` and report it.
-4% (inactive)

Find the measured inhibition of `CN(C)c1ccc(OCCCCCCOc2ccccc2)cc1` and report it.
-5% (inactive)

---

PROTOCOL SUMMARY: inhibition of 3D7 malaria parasite growth – strain 3D7 (AID 2306);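 also: 0% = DMSO wells and 100% = chloroquine plus artemisinin control wells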
RUN CONDITIONS: P. falciparum 3D7 erythrocytic growth, LDH absorbance, 72 h; at 2 µM; active compounds read high
QUANTITY MEASURED: growth inhibition (%)
Report the figure in % without appending any unit label.

Find the measured growth inhibition of `COc1ccc(Nc2ncc3c(-c4cccc(NC(=O)c5ccccc5)c4)c[nH]c3n2)cc1OC` and report it.
101

Find the measured growth inhibition of `CCOc1cc(NCCCNc2ncc([N+](=O)[O-])cc2C)nc2ccccc12` and report it.
84

Find the measured growth inhibition of `FC(F)(F)c1ccc2nc(-c3ccc(-c4cccc(CNCCc5cccnc5)c4)s3)[nH]c2c1` and report it.
101

Find the measured growth inhibition of Cc1cccc2[nH]c(-c3ccc(-c4cccc(CNCC5CCCO5)c4)cc3)nc12 (centres undefined) and report it.
101

Find the measured growth inhibition of CN(CCC1CCN(C(=O)/C=C/c2ccc(Cl)c(Cl)c2)CC1)C1CCC(c2c[nH]c3ccccc23)CC1 (centres undefined) and report it.
87

Find the measured growth inhibition of `Clc1ccc(Cl)c2[nH]c(CNCCCNc3nc4ccccc4[nH]3)cc12` and report it.
100

Find the measured growth inhibition of `O=[N+]([O-])c1ccc(-n2nc(Cc3ccccc3)n(Cc3cccc(F)c3)c2=S)c(C(F)(F)F)c1` and report it.
101

Find the measured growth inhibition of `CCOc1ccc(Br)cc1/C=C/C(=O)Nc1ccc(C2CCN(C)CC2)cc1` and report it.
100

Find the measured growth inhibition of `CN1CCN(CCCN(Cc2ccc(-c3ccc(CNCc4ccc5c(c4)OCO5)cc3)cc2)C(=O)CCC2CCCC2)CC1` and report it.
99

---

PROTOCOL SUMMARY: inhibition of 3D7 malaria parasite growth – strain 3D7 (AID 2306);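 also: 0% = DMSO wells and 100% = chloroquine plus artemisinin control wells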
RUN CONDITIONS: P. falciparum 3D7 erythrocytic growth, LDH absorbance, 72 h; at 2 µM; active compounds read high
QUANTITY MEASURED: growth inhibition (%)
Report the figure in % without appending any unit label.

Find the measured growth inhibition of `CNc1nc(NN=Cc2ccccc2Cl)nc(Nc2cccc(C(F)(F)F)c2)n1` and report it.
84

Find the measured growth inhibition of `COc1cccc(Nc2c(C(N)=O)cnc3ccc(-c4ccccc4)cc23)c1` and report it.
98

Find the measured growth inhibition of `COc1ccc2ncc(F)c(CCN3CC[C@@H](CNCc4cc5c(cn4)OCS5)C3)c2n1` and report it.
98

Find the measured growth inhibition of `Cc1ccc2nc(C)cc(NN=Cc3ccc([N+](=O)[O-])o3)c2c1` and report it.
101

Find the measured growth inhibition of `CC(C)c1ccc(Nc2nc(NCCc3cnc[nH]3)nc(NCc3ccccc3)n2)cc1` and report it.
98

Find the measured growth inhibition of `O=C(Cn1c(CCc2cccc(F)c2F)cc(=O)c2cccnc21)N(CCn1ccnc1)Cc1ccc(-c2ccc(C(F)(F)F)cc2)cc1` and report it.
99

Find the measured growth inhibition of `COc1ccc(CNCc2ccc(-c3cccc(-c4nc5ccc(C(F)(F)F)cc5[nH]4)c3)cc2)cc1` and report it.
102

Find the measured growth inhibition of `COCCn1c(Sc2ncnc3sccc23)nc2ccccc21` and report it.
95

Find the measured growth inhibition of N#Cc1cncc(-c2nc3c(N4CCC(Cc5ccccc5)CC4)cccc3n2C2CCNC2)c1 (centres undefined) and report it.
88

Find the measured growth inhibition of `c1ccc(-c2nc(NCCCn3ccnc3)cc(-c3ccncc3)n2)cc1` and report it.
103

Find the measured growth inhibition of COc1ccccc1N1CCN(C(C(=O)NCc2ccc(C)cc2)c2ccc(C)cc2)CC1 (centres undefined) and report it.
92

Find the measured growth inhibition of CNC(=O)C1Cc2c([nH]c3ccc(Br)cc23)C2(CCN(CCc3ccccc3)CC2)N1 (centres undefined) and report it.
101

Find the measured growth inhibition of `CCCCN=C(N)c1ccc(OCCCCCOc2ccc(C(N)=NCCCC)cc2)cc1` and report it.
99

Find the measured growth inhibition of `CCCn1cnc2cc(C(=O)Nc3ccc(-c4cccc(CN(C)C)c4)cc3)ccc2c1=O` and report it.
95

Find the measured growth inhibition of COc1cc(Cc2cnc(N)nc2N)cc(OCCCCC2SC(=O)NC2=O)c1OC (centres undefined) and report it.
94

Find the measured growth inhibition of `O=C(Nc1ccc(Br)cc1)Nc1ccc(Cn2ncc(N3CCCNCC3)c(Cl)c2=O)cc1` and report it.
87

Find the measured growth inhibition of `Cc1nc2ccc3ccc(CN(C)c4ccc(C(=O)N[C@@H](CCC(=O)O)C(=O)O)cc4)cc3c2c(=O)[nH]1` and report it.
95

Find the measured growth inhibition of `CCCCN1CCCN(Cc2cccc(NC(=O)c3ccc(-c4ccccc4)cc3)c2)CC1` and report it.
92

Find the measured growth inhibition of `CC(C)C[C@H](NC(=O)OC(C)(C)C)C(=O)Nc1ccc(Cc2ccc(NC(=O)[C@H](CC(C)C)NC(=O)OC(C)(C)C)cc2)cc1` and report it.
94
